Test system: CP201
assay: qHTS profiling for inhibitors of Plasmodium falciparum proliferation (AID 504749); note: nearly all actives have a fitted effect of over 60% in size
condition: P. falciparum in erythrocytes, SYBR Green DNA, 72 h; series mostly up to 28.7 µM
Results filed as inconclusive are left out. Active and inactive are the calls of the source. Calls come from the whole dose curve; as a rule, active = well fitted inhibition curve with a large enough effect; inconclusive = small, poorly fitted or top-dose-only effect; inactive = flat fitted curve, though single readings scatter.
assay.metric: outcome

Below: 8 compounds and their reported outcome.
compound	outcome
O=C(O)/C=C/C(=O)Nc1ccc(S(=O)(=O)Nc2nccs2)cc1	inactive
[O]=[Bi][O]C(=O)[O][Bi]=[O]	inactive
CCCOc1cc(N)ccc1C(=O)OCCN(CC)CC	inactive
O=C(O)CCC/C=C\C[C@@H]1[C@@H](/C=C/[C@@H](O)COc2cccc(Cl)c2)[C@H](O)C[C@@H]1O	inactive
COc1ccc2c(=O)c(C)c(-c3ccccc3)oc2c1CN(C)C	inactive
Cc1cc(-c2ccc(N=Nc3ccc4c(S(=O)(=O)O)cc(S(=O)(=O)O)c(N)c4c3O)c(C)c2)ccc1N=Nc1ccc2c(S(=O)(=O)O)cc(S(=O)(=O)O)c(N)c2c1O	inactive
N[C@H](CC(=O)O)C(=O)O	inactive
CN1C(C(=O)Nc2ccccn2)C(=O)c2sc(Cl)cc2S1(=O)=O (stereo unspecified)	inactive

Lookup: I am curious: what outcome value has been reported for "CN[C@@H]1[C@H](O[C@H]2[C@H](O[C@H]3[C@H](O)[C@@H](O)[C@H](N=C(N)N)[C@@H](O)[C@@H]3N=C(N)N)O[C@@H](C)[C@]2(O)C=O)O[C@@H](CO)[C@H](O)[C@H]1O" ?
Found: inactive

Lookup: I am curious: what outcome value has been reported for CC(O)CN(C)C (stereo unspecified) ?
Found: inactive

Lookup: I am curious: what outcome value has been reported for "Cn1c(O)c(N=NC(N)=S)c2ccccc21" ?
Found: inactive
